tested on: ragweed; test: Test C postemergence; format: in vivo, Ambrosia elatior; conditions: Postemergence, 62 g ai/ha; scale 0 to 100 (0 no effect, 100 complete control)
Parameter threshold = 40. Response is met when Plant response rating, Ragweed meets or exceeds it, else not met.

Fc1cccc(Oc2ncc(Cl)cn2)c1-n1cc(C2CC2)nn1 [Compound 155]    met

Is the recorded value of Plant response rating, Ragweed equal to or greater than 40 for this molecule? FC(F)(F)c1cnn(-c2c(Cl)cccc2Oc2ncc(Cl)cn2)c1 [Compound 167] not met

Param item: N#Cc1cccc(Oc2ncc(F)cn2)c1-n1cc(Cl)cn1 [Compound 73] not met

====

The following compounds are listed with their measured Plant response rating, Wheat values.
tested on: wheat; experiment: Test A postemergence; assay type: in vivo, Triticum aestivum; details: 1000 g ai/ha, 0 to 100 scale, 0 no effect, 100 complete control
Write no unit; give the number alone.

Completed entries (count: 4):
CCOC(=O)c1cn(-c2ccccc2Oc2ncc(Cl)cn2)nn1    0
COC(=O)c1cccc(Oc2ncc(Cl)cn2)c1-n1cc(C(F)(F)F)cn1    20
Fc1cccc(Oc2ncc(Cl)cn2)c1-n1ccnn1    30
NC(=O)c1cnn(-c2ccccc2Oc2ncc(Cl)cn2)c1    0

Okay, now this compound:
Value lookup for Plant response rating, Wheat; key = C[Si](C)(C)c1cn(-c2ccccc2Oc2ncc(Cl)cn2)nn1 0
